system: T1, C5 peptide 33-108 fused to GST-tag (human, UniProt P01031 33-108)
T1 construct: not shown: GST-tag (glutathione S-transferase); vector and linker not restated
T1 sequence (P01031 33-108): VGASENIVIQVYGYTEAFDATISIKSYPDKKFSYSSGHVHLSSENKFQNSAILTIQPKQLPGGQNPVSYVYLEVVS
experimental-details: summary drawing of the binding reactions to C5 beta-chain fragments
endpoint-label: binding result

CFA0675 (antibody, V domains shown, Chimeric, rabbit V regions; also called CFA0675-F760G4) VH: QSVEESGGRLVTPGTPLTLTCTVSGFSLSTYAMGWVRQAPGKGLEWIGTIDTGDNSFYANWAKGRFTISRTSTTVDLKITSPTAEDTATYFCARNDGSVYNLFNLWGPGTLVTVSS VL: DVVMTQTPASVSAAVGGTVTIKCQASENIYSALSWYQQKPGLRPRLLIYYASTLASGVPSRFKGSRSGTEFTLTISDLECADAASYYCQQYYDINSVDNTFGGGTKVVVE = no binding
CFA0599 (antibody, V domains shown, Chimeric, rabbit V regions; also called CFA0599-F760G4) VH: QSVEESGGRLVTPGTPLTLTCTVSGLSLSDNTMTWVRQAPGKGLEWIGIISFGGDAYYASWAKGRFPISKTSTTVDLRITSPTTEDTATYFCARVGAGNIFWYFDLWGPGTLVTVSS VL: AYDMTQTPASVEVSVGGTVTIKCQASESIYSALAWYQQKPGQPPKLLIYSASTLASGVPSRFKGSGSGTEYTLTISDLECADAATYYCQQYYSSTNVHNSFGGGTTVVVE = no binding
CFA0307 (antibody, V domains shown, Chimeric, rabbit V regions; also called CFA0307-F760G4) VH: QSLEESGGGLVKPGASLTLTCKASGIDFSNFYYICWVRQAPGKGLDLIACIYTVSGYTYYASWAKGRLTISKTSSTTVTLQMTSLTAADTATYFCARDLHAGITNLWGPGTLVTVSS VL: AIEMTQTPFSVSAAVGGTVTIKCQASQNIYSNLAWYQQKPGQRPKLLIYGASNLESGVPSRFKGSGSGTEYTLTISDLECADAATYYCLQGYSYSNVDDAFGGGTEVVVK = no binding
CFA0538 (antibody, V domains shown, Chimeric, rabbit V regions; also called CFA0538-F760G4) VH: QSVEESGGRLVTPGTPLTLTCTASGFSLSSYYMNWVRQAPGKGLEWIGMIYGSGATYYASWAKGRFTISKTSSTTVDLKMTSLTTEDTATYFCARQIYSGDNNDNFWGPGTLVTVSS VL: AYDMTQTPASVEVAVGGTVTINCQASESISNWLAWYQQKPGQRPKLLIYRASTLASGVSSRFKGSGSGTQFTLTISGVECDDAATYYCQQDYSSSNVDNTFGGGTTVVVE = no binding

Proceeding to the next binder to report its binding result.
Task: Recorded binding result of CFA0666 (antibody, V domains shown, Chimeric, rabbit V regions; also called CFA0666-F760G4) VH: QSVEESGGRLVTPGTPLTLTCTVSGFSLSTYAMGWVRQAPGKGLEWIGTIDTGDNSFYANWAKGRFTISKTSTTVDLKITSPTAEDTATYFCARNDGSVYNLFNLWGPGTLVTVSS VL: DVVMTQTPASVSAAVGGTVTIKCQASENIYSALSWYQQKPGLRPRLLIYYASTLASGVPSRFKGSRSGTEFTLTISDLECADAATYYCQQYYDINSVDNTFGGGTKVVVE , please.
Output: no binding
